test-summary: Tissue distribution (PK) in BALB/c nude mice bearing human colon cancer LoVo xenografts
Format: in vivo
experimental-setup: mouse, tumer (tumor), LoVo xenograft mice, oral 40 mg/kg twice a day for three weeks, after last administration
endpoint-name: AUC(0-t) (µM·h)

A = C=CCn1c(=O)c2cnc(Nc3ccc(N4CCC5(CCN(C(C)=O)CC5)CC4)cc3)nc2n1-c1cccc(C(C)(C)O)n1 [Embodiment 30]
B = C=CCn1c(=O)c2cnc(Nc3ccc(N4CCN(C)CC4)cc3)nc2n1-c1cccc(C(C)(C)O)n1 [AZD1775, reference compound]
-- ask Select one: A or B . Criterion: greater recorded AUC(0-t). Reply with the label of the item you choose.
-- reply A
(A: 37.3 µM·h, B: 15.3 µM·h)

###

test-summary: Tissue distribution (PK) in BALB/c nude mice bearing human colon cancer LoVo xenografts
Assay type: in vivo
experimental-setup: mouse, tumer (tumor), LoVo xenograft mice, oral 40 mg/kg twice a day for three weeks, after last administration
endpoint-name: Tmax (h)

A = C=CCn1c(=O)c2cnc(Nc3ccc(N4CCC5(CCN(C(C)=O)CC5)CC4)cc3)nc2n1-c1cccc(C(C)(C)O)n1 [Embodiment 30]
B = C=CCn1c(=O)c2cnc(Nc3ccc(N4CCN(C)CC4)cc3)nc2n1-c1cccc(C(C)(C)O)n1 [AZD1775, reference compound]
-- ask Select one: A or B . Criterion: greater recorded Tmax. Reply with the label of the item you choose.
-- reply A
(A: 8 h, B: 2 h)

###

assayed-target: Wee1 (Homo sapiens (Human))
test-summary: In vitro enzymatic inhibitory activity (33P-ATP filter-binding kinase assay, MBP substrate)
Format: biochemical
experimental-setup: Wee-1 150 nM, MBP 20 μM
endpoint-name: IC50 (nM)

{"columns": ["smiles-repr", "IC50 (nM)"],
 "data": [
  ["CN1CCC2(CC1)CCN(c1ccc(Nc3ncc4c(=O)n(Cc5ccccc5)n(-c5ccccc5)c4n3)cc1)CC2", 79.6]
]}

P = C=CCn1c(=O)c2cnc(Nc3ccc(N4CCC5(CCN(C)CC5)CC4)cc3)nc2n1-c1nccs1
Q = C=CCn1c(=O)c2cnc(Nc3ccc(N4CCC5(CCN(C)CC5)CC4)c(C)c3)nc2n1-c1cccc(C(C)(C)O)n1
R = C=CCn1c(=O)c2cnc(Nc3ccc(N4CCC5(CCN(C)CC5)CC4)cc3)nc2n1-c1cccc(C2(OC)COC2)n1
S = C=CCn1c(=O)c2cnc(Nc3ccc(N4CCC5(CCN(C)CC5)CC4)cc3)nc2n1-c1cccc(C2(F)COC2)n1
T = CN1CCC2(CC1)CCN(c1ccc(Nc3ncc4c(=O)n(CC(F)F)n(-c5ccccc5)c4n3)cc1)CC2
-- ask Ascending sort, IC50. Answer with the labels in sequence, matching the requested order.
-- reply R, S, Q, P, T

###

assayed-target: Wee1 (Homo sapiens (Human), UniProt P30291)
Sequence (P30291 whole entry): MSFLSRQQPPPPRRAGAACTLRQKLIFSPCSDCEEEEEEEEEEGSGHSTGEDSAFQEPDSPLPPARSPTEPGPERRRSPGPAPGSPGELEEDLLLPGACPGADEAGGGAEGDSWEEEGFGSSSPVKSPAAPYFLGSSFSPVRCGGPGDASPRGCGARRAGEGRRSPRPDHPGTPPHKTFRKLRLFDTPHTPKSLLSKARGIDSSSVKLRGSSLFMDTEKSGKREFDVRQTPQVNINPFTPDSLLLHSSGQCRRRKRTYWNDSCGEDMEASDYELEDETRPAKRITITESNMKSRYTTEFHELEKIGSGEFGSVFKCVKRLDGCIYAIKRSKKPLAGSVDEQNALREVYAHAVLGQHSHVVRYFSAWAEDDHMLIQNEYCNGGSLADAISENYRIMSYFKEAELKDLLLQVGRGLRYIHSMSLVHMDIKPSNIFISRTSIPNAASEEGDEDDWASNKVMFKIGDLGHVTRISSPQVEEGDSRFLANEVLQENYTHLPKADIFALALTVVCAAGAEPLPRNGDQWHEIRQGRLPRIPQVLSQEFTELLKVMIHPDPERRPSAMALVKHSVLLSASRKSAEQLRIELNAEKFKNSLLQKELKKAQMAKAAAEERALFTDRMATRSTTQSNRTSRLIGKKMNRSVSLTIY
test-summary: In vitro enzymatic inhibitory activity (33P-ATP filter-binding kinase assay, MBP substrate)
Type: biochemical
experimental-setup: Wee-1 150 nM, MBP 20 μM
endpoint-name: IC50 (nM)

Some solved entries appear below for comparison.
{"columns": ["compound", "endpoint-name", "value-observed"],
 "data": [
  ["C=CCn1c(=O)c2cnc(Nc3ccc(N4CCC5(CCN(CC(F)F)CC5)CC4)cc3)nc2n1-c1cccc(C(C)(C)O)n1", "IC50", 15.7],
  ["C=CCn1c(=O)c2cnc(Nc3ccc(N4CCC5(CCN(C)CC5)CC4)cc3)nc2n1-c1cccc(C2(C)CC2)n1", "IC50", 30.4],
  ["C=CCn1c(=O)c2cnc(Nc3ccc(N4CCC5(CCN(C)CC5)CC4)cc3)nc2n1-c1cccc(C(C)(O)C(F)(F)F)n1 (stereo not shown)", "IC50", 13.1]
]}

a = C=CCn1c(=O)c2cnc(Nc3ccc(N4CCC5(CCN(CCC#N)CC5)CC4)cc3)nc2n1-c1cccc(C(C)(C)O)n1
b = C=CCn1c(=O)c2cnc(Nc3ccc(N4CCC5(CCN(CC#N)CC5)CC4)cc3)nc2n1-c1cccc(C(C)(C)O)n1
c = C=CCn1c(=O)c2cnc(Nc3ccc(N4CCC5(CCN(C)CC5)CC4)cc3)nc2n1-c1cccc(OCC)n1
d = CN1CCC2(CC1)CCN(c1ccc(Nc3ncc4c(=O)n(C)n(-c5ccccc5)c4n3)cc1)CC2
-- ask Ascending sort, IC50. Answer with the labels in sequence, matching the requested order.
-- reply c, b, a, d
(c: 2.8 nM, b: 8.3 nM, a: 36.1 nM, d: 131 nM)
